Provenance of the data: ChEMBL document CHEMBL5230138

tested on: TZM; experiment: Cytotoxicity against human TZM-bl cells assessed as reduction in cell viability incubated for 3 days by MTS assay; assay type: toxicity, cell-based; conditions: tzm, 72 h, time 3 day, read-out: CC50
Reported CC50 values for a set of molecules
recordedEndpoint: CC50 (µM)

- molecule: "NC[C@H](NC(=O)c1ccc(-c2ccc(C(F)(F)F)c(F)c2)[nH]1)c1nc(C(N)=O)cs1"
  comparisonSymbol: ">"
  quantitativeReadout: 52
- molecule: "CC(CN)(NC(=O)c1ccc(-c2cc(F)c(Cl)c(F)c2)[nH]1)c1nc(CO)cs1 (racemic)"
  comparisonSymbol: "="
  quantitativeReadout: 47.7
- molecule: "COC(=O)c1csc([C@@H](CN)NC(=O)c2ccc(-c3ccc(C(F)(F)F)c(F)c3)[nH]2)n1"
  comparisonSymbol: "="
  quantitativeReadout: 23.4
- molecule: "NC[C@H](NC(=O)c1ccc(-c2ccc(C(F)(F)F)cc2C(F)(F)F)[nH]1)c1nc(CO)cs1"
  comparisonSymbol: "="
  quantitativeReadout: 33.4
- molecule: "Cc1cc(-c2ccc(C(F)(F)F)c(F)c2)[nH]c1C(=O)N[C@@H](CN)c1nc(CO)cs1"
  comparisonSymbol: "="
  quantitativeReadout: 18.5
- molecule: "Cc1cc(-c2ccc(C(F)(F)F)c(F)c2)[nH]c1C(=O)N[C@H](CN)c1nc(CO)cs1"
  comparisonSymbol: "="
  quantitativeReadout: 14.1
- molecule: "NC[C@H](NC(=O)c1ccc(-c2ccc(C(F)(F)F)cc2)[nH]1)c1ncc(COCC(O)CO)s1 (stereo partly drawn)"
  comparisonSymbol: ">"
  quantitativeReadout: 61.9
- molecule: "CC(C)(N)[C@@H](NC(=O)c1ccc(-c2ccc(C(F)(F)F)cc2)[nH]1)c1nc(CO)cs1"
  comparisonSymbol: "="
  quantitativeReadout: 19.9

----------
Reported CC50 values for a set of compounds
tested on: TZM; experiment: Cytotoxicity against human TZM-bl cells assessed as reduction in cell viability incubated for 3 days by MTS assay; assay type: toxicity, cell-based; settings: tzm, 72 h, time 3 day, read-out: CC50
recordedEndpoint: CC50 (µM)

- sampleSmiles: "CC(C)(N)[C@H](NC(=O)c1ccc(-c2ccc(C(F)(F)F)cc2)[nH]1)c1nc(CO)cs1"
  systemName: "TZM"
  readingUnit: "µM"
  quantitativeReadout: 17.5
- sampleSmiles: "Cc1cc(-c2ccc(C(F)(F)F)c(F)c2)[nH]c1C(=O)N[C@H](CN)c1ncc(CO)s1"
  systemName: "TZM"
  readingUnit: "µM"
  quantitativeReadout: 10.4
- sampleSmiles: "CC(C)(N)[C@H](NC(=O)c1ccc(-c2cc(F)c(Cl)c(F)c2)[nH]1)c1nc(CO)cs1"
  systemName: "TZM"
  readingUnit: "µM"
  quantitativeReadout: 16
- sampleSmiles: "NC[C@@H](NC(=O)c1ccc(-c2ccc(C(F)(F)F)c(F)c2)[nH]1)c1nc(CCCO)cs1"
  systemName: "TZM"
  readingUnit: "µM"
  quantitativeReadout: 38

----------
test: Selectivity index, ratio of CC50 for HIV1 human TZM-bl cells to EC50 for HIV1 ENV pseudotype from the lab-adapted CXCR4-tropic HIV-1 HXB-2 infected in human TZM-bl cells; format: toxicity, cell-based; settings: TZM-bl cells, read-out: Selectivity Index
Response field label takes Satisfied when selectivity ratio is strictly below 20 and Not satisfied in all other cases.

- compound: "Cc1cc(-c2ccc(C(F)(F)F)c(F)c2)[nH]c1C(=O)N[C@@H](CN)c1ncc(CO)s1"
  categoryLabel: "Not satisfied"
- compound: "COC(=O)c1csc([C@@H](CN)NC(=O)c2ccc(-c3ccc(C(F)(F)F)c(F)c3)[nH]2)n1"
  categoryLabel: "Satisfied"
- compound: "NC[C@@H](NC(=O)c1ccc(-c2ccc(C(F)(F)F)cc2C(F)(F)F)[nH]1)c1nc(CO)cs1"
  categoryLabel: "Satisfied"
- compound: "NC[C@@H](NC(=O)c1ccc(-c2ccc(C(F)(F)F)c(F)c2)[nH]1)c1ncc(C(O)CO)s1 (some centres undefined)"
  categoryLabel: "Not satisfied"
- compound: "NC[C@@H](NC(=O)c1ccc(-c2ccc(C(F)(F)F)cc2F)[nH]1)c1nc(CO)cs1"
  categoryLabel: "Not satisfied"
- compound: "COC(=O)c1csc([C@H](CN)NC(=O)c2ccc(-c3ccc(C(F)(F)F)c(F)c3)[nH]2)n1"
  categoryLabel: "Satisfied"
- compound: "CC(C)(N)[C@@H](NC(=O)c1ccc(-c2ccc(C(F)(F)F)cc2)[nH]1)c1ncc(CO)s1"
  categoryLabel: "Not satisfied"
- compound: "NC[C@H](NC(=O)c1ccc(-c2ccc(C(F)(F)F)cc2F)[nH]1)c1nc(CO)cs1"
  categoryLabel: "Not satisfied"
- compound: "CC(C)(N)[C@H](NC(=O)c1ccc(-c2cc(F)c(Cl)c(F)c2)[nH]1)c1nc(CO)cs1"
  categoryLabel: "Not satisfied"
- compound: "NC[C@@H](NC(=O)c1ccc(-c2ccc(C(F)(F)F)c(F)c2)[nH]1)c1nc(CCO)cs1"
  categoryLabel: "Not satisfied"
- compound: "NC[C@H](NC(=O)c1ccc(-c2ccc(C(F)(F)F)c(F)c2)[nH]1)c1nc(C(N)=O)cs1"
  categoryLabel: "Not satisfied"
- compound: "NC[C@@H](NC(=O)c1ccc(-c2ccc(C(F)(F)F)c(F)c2)[nH]1)c1nc(C(N)=O)cs1"
  categoryLabel: "Satisfied"
- compound: "NC[C@H](NC(=O)c1ccc(-c2ccc(C(F)(F)F)cc2C(F)(F)F)[nH]1)c1nc(CO)cs1"
  categoryLabel: "Satisfied"
- compound: "NC[C@H](NC(=O)c1ccc(-c2ccc(C(F)(F)F)c(F)c2)[nH]1)c1nc(CCCO)cs1"
  categoryLabel: "Not satisfied"
- compound: "NC[C@@H](NC(=O)c1ccc(-c2ccc(C(F)(F)F)c(F)c2)[nH]1)c1nc(CCCO)cs1"
  categoryLabel: "Satisfied"
- compound: "NC[C@@H](NC(=O)c1ccc(-c2ccc(C(F)(F)F)cc2)[nH]1)c1ncc(COCC(O)CO)s1 (some centres undefined)"
  categoryLabel: "Not satisfied"
- compound: "NC[C@H](NC(=O)c1ccc(-c2cc(F)c(Cl)c(F)c2)[nH]1)c1nc(CCO)cs1"
  categoryLabel: "Not satisfied"
- compound: "Cc1cc(-c2ccc(C(F)(F)F)c(F)c2)[nH]c1C(=O)N[C@@H](CN)c1nc(CO)cs1"
  categoryLabel: "Not satisfied"
- compound: "CC(C)(N)[C@@H](NC(=O)c1ccc(-c2cc(F)c(Cl)c(F)c2)[nH]1)c1nc(CO)cs1"
  categoryLabel: "Not satisfied"
- compound: "CC(C)(N)[C@H](NC(=O)c1ccc(-c2ccc(C(F)(F)F)cc2)[nH]1)c1ncc(CO)s1"
  categoryLabel: "Not satisfied"
- compound: "CC(CN)(NC(=O)c1ccc(-c2cc(F)c(Cl)c(F)c2)[nH]1)c1nc(CO)cs1 (racemic)"
  categoryLabel: "Satisfied"
- compound: "CC(C)(N)[C@@H](NC(=O)c1ccc(-c2ccc(C(F)(F)F)cc2)[nH]1)c1nc(CO)cs1"
  categoryLabel: "Satisfied"
- compound: "NC[C@@H](NC(=O)c1ccc(-c2cc(F)c(Cl)c(F)c2)[nH]1)c1nc(CCO)cs1"
  categoryLabel: "Not satisfied"
- compound: "Cc1cc(-c2ccc(C(F)(F)F)c(F)c2)[nH]c1C(=O)N[C@H](CN)c1nc(CO)cs1"
  categoryLabel: "Not satisfied"
- compound: "CC(CN)(NC(=O)c1ccc(-c2ccc(C(F)(F)F)c(F)c2)[nH]1)c1nc(CO)cs1 (racemic)"
  categoryLabel: "Not satisfied"
- compound: "NC[C@H](NC(=O)c1ccc(-c2ccc(C(F)(F)F)c(F)c2)[nH]1)c1nc(C(O)CO)cs1 (some centres undefined)"
  categoryLabel: "Not satisfied"
- compound: "NC[C@H](NC(=O)c1ccc(-c2ccc(C(F)(F)F)c(F)c2)[nH]1)c1ncc(C(O)CO)s1 (some centres undefined)"
  categoryLabel: "Satisfied"
- compound: "NC[C@@H](NC(=O)c1ccc(-c2ccc(C(F)(F)F)c(F)c2)[nH]1)c1nc(C(O)CO)cs1 (some centres undefined)"
  categoryLabel: "Not satisfied"
- compound: "NC[C@H](NC(=O)c1ccc(-c2ccc(C(F)(F)F)c(F)c2)[nH]1)c1nc(CCO)cs1"
  categoryLabel: "Not satisfied"

----------
test: Cytotoxicity against human TZM-bl cells assessed as reduction in cell viability incubated for 3 days by MTS assay; type: toxicity, cell-based; settings: TZM-bl cells, time 3 day

- compound: "NC[C@@H](NC(=O)c1ccc(-c2ccc(C(F)(F)F)cc2)[nH]1)c1ncc(COCC(O)CO)s1 (stereo partly specified)"
  CC50 at 72 h / µM: 80

----------
tested on: TZM; assay: Cytotoxicity against human TZM-bl cells assessed as reduction in cell viability incubated for 3 days by MTS assay; format: toxicity, cell-based; settings: tzm, 72 h, time 3 day, read-out: CC50
Response field label takes true (1) when CC50 is strictly below 30 µM and false (0) in all other cases.

- compound: "NC[C@@H](NC(=O)c1ccc(-c2cc(F)c(Cl)c(F)c2)[nH]1)c1nc(CCO)cs1"
  categoryLabel: "false (0)"
- compound: "NC[C@@H](NC(=O)c1ccc(-c2ccc(C(F)(F)F)cc2F)[nH]1)c1nc(CO)cs1"
  categoryLabel: "true (1)"
- compound: "NC[C@@H](NC(=O)c1ccc(-c2ccc(C(F)(F)F)c(F)c2)[nH]1)c1ncc(C(O)CO)s1 (some centres undefined)"
  categoryLabel: "false (0)"
- compound: "CC(C)(N)[C@@H](NC(=O)c1ccc(-c2cc(F)c(Cl)c(F)c2)[nH]1)c1nc(CO)cs1"
  categoryLabel: "true (1)"
- compound: "NC[C@@H](NC(=O)c1ccc(-c2ccc(C(F)(F)F)cc2F)[nH]1)c1nc(CCO)cs1"
  categoryLabel: "true (1)"
- compound: "NC[C@@H](NC(=O)c1ccc(-c2ccc(C(F)(F)F)c(F)c2)[nH]1)c1nc(CCO)cs1"
  categoryLabel: "true (1)"
- compound: "NC[C@H](NC(=O)c1ccc(-c2ccc(C(F)(F)F)c(F)c2)[nH]1)c1ncc(C(O)CO)s1 (some centres undefined)"
  categoryLabel: "false (0)"
- compound: "Cc1cc(-c2ccc(C(F)(F)F)c(F)c2)[nH]c1C(=O)N[C@@H](CN)c1ncc(CO)s1"
  categoryLabel: "true (1)"
- compound: "N#Cc1ccc(-c2ccc(C(=O)N[C@H](CN)c3nc(CO)cs3)[nH]2)cc1"
  categoryLabel: "false (0)"
